// provenance: patent US11180484B2

Record: IC50 reported on UniProtKB P03951.
Sequence (P03951 388-625): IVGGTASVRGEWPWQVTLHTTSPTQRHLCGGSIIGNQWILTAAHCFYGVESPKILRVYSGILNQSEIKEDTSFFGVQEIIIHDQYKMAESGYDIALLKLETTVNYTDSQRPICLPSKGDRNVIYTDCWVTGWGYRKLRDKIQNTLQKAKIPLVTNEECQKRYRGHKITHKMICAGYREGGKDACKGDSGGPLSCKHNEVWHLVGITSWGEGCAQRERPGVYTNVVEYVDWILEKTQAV
Sequence (P03951 19-387): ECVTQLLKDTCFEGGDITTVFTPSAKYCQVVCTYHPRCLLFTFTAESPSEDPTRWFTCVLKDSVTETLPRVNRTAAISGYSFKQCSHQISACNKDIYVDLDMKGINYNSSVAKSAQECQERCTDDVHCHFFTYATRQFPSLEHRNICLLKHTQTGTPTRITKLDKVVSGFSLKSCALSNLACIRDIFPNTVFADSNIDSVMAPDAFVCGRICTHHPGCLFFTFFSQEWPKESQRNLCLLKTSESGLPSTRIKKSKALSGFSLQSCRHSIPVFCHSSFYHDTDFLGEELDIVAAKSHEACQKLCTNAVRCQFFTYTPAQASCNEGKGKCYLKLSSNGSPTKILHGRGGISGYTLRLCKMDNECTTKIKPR

Record excerpt, results attached:
> print(dat)
                                   compound       test.target  experimental.result
1  COCc1nn(Cc2ccc(Cn3ccccc3=O)cc2)cc1C(=O)NCc1cccc(OC)c1C#N  UniProtKB P03951              > 40 µM
2  COCc1nn(Cc2ccc(Cn3ccccc3=O)cc2)cc1C(=O)NCc1c(C(N)=O)ccc(OC)c1F  UniProtKB P03951              > 40 µM
3  COCc1nn(Cc2ccc(Cn3ccccc3=O)cc2)cc1C(=O)NCc1cc(OC)ncn1  UniProtKB P03951              > 40 µM
4  COCc1nn(Cc2ccc(Cn3cccn3)cc2)cc1C(=O)NCc1cccc(Cl)c1F [Reference Example J, reference compound]  UniProtKB P03951              > 40 µM
5  COCc1nn(Cc2ccc(Cn3ccccc3=O)cc2)cc1C(=O)NCc1nccc(C)c1Cl  UniProtKB P03951              > 40 µM

Here's the next entry for you.
Please look at COCc1nn(Cc2ccc(Cn3cc(C)cn3)cc2)cc1C(=O)NCc1nccc(OC)c1F and tell me its recorded IC50 on UniProtKB P03951.
> 40 µM
